Target: Nuclear receptor subfamily 0 group B member 1 (Homo sapiens)
Assay: DAX1 (NR0B1) inhibitors, primary screen, cell-based, HEK293, Gal4-DAX1, luciferase luminescence (AID 504766);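 note: 0% = DAX1-transfected cells with DMSO and 100% = empty-vector control cells with DMSO; inhibition shows as a rise in luminescence from relieved DAX1 repression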
Conditions: HEK293 Gal4-DAX1 luciferase reporter, at 6.75 µM, stronger effect = higher value
About 3,400 (1%) of roughly 340,000 compounds were called active. The full list was thinned out, with actives kept by preference.
MEASURED METRIC: inhibition (%)
Numeric answer only, unit % assumed.

MOLECULE: CCCCN(C(C)=O)c1ccc2c(c1)C1CC2CCN1Cc1ccccc1 (centres undefined)
ASSAY SYSTEM: Nuclear receptor subfamily 0 group B member 1 (Homo sapiens)
MEASURED METRIC: inhibition
MEASURED VALUE: 1.48

Q: Recorded inhibition for O=C(OCc1ccccc1)N1CCC2CC1c1cc(N3CCN(S(=O)(=O)c4cc(Cl)cc(Cl)c4)CC3)ccc12 (centres undefined) , please?
Result: 1.86

Q: Recorded inhibition for COc1ccc(-n2c(-c3ccc(Cl)cc3)n[nH]c2=S)c(OC)c1 , please?
Result: 0.25

Q: Recorded inhibition for COc1ccccc1-c1n[nH]nc1C1=CC(=O)CC(C)(C)C1 , please?
Result: 1.58

Q: Recorded inhibition for c1ccc(Cn2nnc3c(NCC4CC4)ncnc32)cc1 , please?
Result: 1.59

Q: Recorded inhibition for Nc1ccc(S(=O)(=O)NC(=O)c2ccccc2)cc1 , please?
Result: 1.24
